Test system: PXR:RXRa (NR concentration 270 nM, RXRa partner concentration 90 nM)
runDescription: PBM binding z-score (relative to random genomic background probes); higher = stronger binding; sequences stand for … in GC…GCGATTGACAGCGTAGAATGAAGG
Mark condition met for reported PBM binding z-score of 0.3 or greater; mark condition not met for anything smaller.

{"columns": ["residueSequence", "answerLabel"],
 "data": [
  ["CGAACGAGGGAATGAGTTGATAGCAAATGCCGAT", "condition not met"],
  ["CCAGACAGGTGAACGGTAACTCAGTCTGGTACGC", "condition not met"],
  ["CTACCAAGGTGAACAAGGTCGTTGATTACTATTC", "condition met"],
  ["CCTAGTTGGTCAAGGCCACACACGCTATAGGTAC", "condition not met"],
  ["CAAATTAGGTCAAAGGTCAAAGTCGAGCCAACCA", "condition met"],
  ["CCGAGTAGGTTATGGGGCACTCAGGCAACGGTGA", "condition not met"],
  ["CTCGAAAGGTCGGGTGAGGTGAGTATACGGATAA", "condition met"],
  ["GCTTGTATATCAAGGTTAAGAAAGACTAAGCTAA", "condition met"],
  ["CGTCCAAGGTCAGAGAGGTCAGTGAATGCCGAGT", "condition met"],
  ["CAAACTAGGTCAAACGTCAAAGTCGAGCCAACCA", "condition met"],
  ["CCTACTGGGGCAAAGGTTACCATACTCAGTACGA", "condition met"],
  ["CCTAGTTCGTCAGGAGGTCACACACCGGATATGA", "condition met"],
  ["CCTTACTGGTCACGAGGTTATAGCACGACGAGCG", "condition met"],
  ["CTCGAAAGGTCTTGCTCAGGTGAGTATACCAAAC", "condition met"],
  ["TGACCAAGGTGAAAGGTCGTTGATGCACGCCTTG", "condition met"],
  ["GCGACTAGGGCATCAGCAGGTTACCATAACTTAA", "condition not met"],
  ["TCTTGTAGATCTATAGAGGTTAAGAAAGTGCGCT", "condition met"],
  ["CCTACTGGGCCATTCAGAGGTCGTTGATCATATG", "condition met"],
  ["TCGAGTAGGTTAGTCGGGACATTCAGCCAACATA", "condition not met"],
  ["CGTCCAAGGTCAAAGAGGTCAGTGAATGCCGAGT", "condition met"]
]}
